MEASUREMENT NOTES: blockers of RIG-like receptor reporter activation – cell-based, Sendai virus stimulus, luciferase, 10K MLSCN set, TLR/RLR signaling modifier project, primary screen (AID 602276);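 further: firefly luciferase from ISG56 promoter only with Renilla not read in this screen; 0% = Sendai virus plus DMSO and 100% = medium plus DMSO without virus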
RUN CONDITIONS: HEK293 RL24 IRF3 luciferase reporter, at 10 µM, active compounds read high
MEASURED METRIC: inhibition (%)

INSERT INTO measurements (compound, scale_unit, measured_number) VALUES
  ('CCN(CC)C(=O)CN(c1cc(Cl)ccc1OC)S(C)(=O)=O', '%', 7.69),
  ('CC(=O)c1ccc(NC(=O)c2noc3c2CCCCC3)cc1', '%', -32.5),
  ('CC(C)(C)n1ncc2c(=O)n(CC(=O)NCCc3ccccc3)cnc21', '%', -40.8),
  ('CC1CN(c2nc3ccccn3c(=O)c2/C=C(\C#N)S(=O)(=O)c2ccccc2)CC(C)O1 (centres undefined)', '%', -1.56),
  ('CSc1nnc(-c2cnccn2)n1C', '%', 22.1),
  ('COC(=O)c1[nH]c2ccccc2c1NS(=O)(=O)c1ccc(OC)cc1OC', '%', 19.9),
  ('Cc1ccc(SCCC(=O)N(C)C)cc1', '%', -10.8),
  ('O=C(Cn1nnc2c(cnn2-c2ccc(F)cc2)c1=O)c1ccccc1F', '%', 11.8),
  ('O=C(O)c1ccc(-n2nnnc2Oc2ccccc2C(=O)N2CCOCC2)cc1', '%', 21),
  ('O=C(NCc1ccc2c(c1)OCO2)c1cc2n(n1)C(C(F)(F)F)CC(c1ccc3c(c1)OCO3)N2 (centres undefined)', '%', 18.5),
  ('CC(=O)N(c1ccc(N(C(C)=O)S(=O)(=O)c2cccs2)cc1)S(=O)(=O)c1cccs1', '%', 4.25),
  ('CCNc1nc(NCC)n2c(SCc3nc4ccccc4c(=O)[nH]3)nnc2n1', '%', -0.856),
  ('CCOC(=O)N1CCC(NC(=O)CCc2c(C)nc3c(c(C)nn3C(C)(C)C)c2C)CC1', '%', 11),
  ('Cc1cc(C)nc(N2CCC(C(=O)NCc3cccc(C(F)(F)F)c3)CC2)n1', '%', 11.9);
